Assay: Mouse pharmacokinetic study (intravenous and oral)
Type: in vivo
Settings: oral administration 10 mpk
Experimental: Experimental Example 2: Mouse Pharmacokinetic Study The mice were randomly divided into two groups (one intravenous group and one oral group) or only oral group, 3 males in each group. The compounds were formulated into the designated preparations. […] For individual plasma concentrations of less than BQL, the concentrations appeared before Tmax were calculated as 0, and the concentrations appeared after Tmax were directly excluded. […]
Exercise: for every item that follows, state its recorded Peak concentration.
Please provide the amount together with its unit, number first.

Task item: Requested field: Peak concentration. Item: O=C(O)C[C@H](NC(=O)C1CCN(C(=O)OC2CCCC2)CC1)C(=O)COc1c(F)c(F)cc(F)c1F [Example 69]
Reply: 1993 nM

Task item: Requested field: Peak concentration. Item: O=C(O)C[C@H](NC(=O)C1CCN(C(=O)C2CCCC2)CC1)C(=O)COc1c(F)c(F)cc(F)c1F [Example 49]
Reply: 405 nM

Task item: Requested field: Peak concentration. Item: C[C@H](NC(=O)C(=O)Nc1ccccc1C(C)(C)C)C(=O)N[C@@H](CC(=O)O)C(=O)COc1c(F)c(F)cc(F)c1F [IDN-6556, reference compound]
Reply: 227 nM

Task item: Requested field: Peak concentration. Item: CC(C)(C)c1ccccc1NC(=O)C(=O)N1CCC(C(=O)N[C@@H](CC(=O)O)C(=O)COc2c(F)c(F)cc(F)c2F)CC1 [Example 7]
Reply: 1636 nM

---

system: Anti-Fas-induced Jurkat cells; assay: Anti-Fas-induced apoptosis of Jurkat cells in vitro (Caspase 3 substrate Ac-DEVD-AMC fluorescence); assay type: cell-based; conditions: Homo sapiens; Jurkat Clone E6-1, Anti-Fas 50 ng/mL, 24 hours, Ac-DEVD-AMC 10 μM
recorded_metric: EC50 (nM)
// note: answer is a bare numeric in nM

Task item: # get_value(readout= EC50, system= Anti-Fas-induced Jurkat cells) for `O=C(O)C[C@H](NC(=O)C1CCN(C(=O)c2ccccn2)CC1)C(=O)COc1c(F)c(F)cc(F)c1F`
Reply: 25.4

Task item: # get_value(readout= EC50, system= Anti-Fas-induced Jurkat cells) for `O=C(O)C[C@H](NC(=O)C1CCN(C(=O)C(=O)Nc2cc(Cl)ccc2Cl)CC1)C(=O)COc1c(F)c(F)cc(F)c1F`
Reply: 61.3

Task item: # get_value(readout= EC50, system= Anti-Fas-induced Jurkat cells) for `CC(C)(C)c1ccccc1NC(=O)C(=O)N[C@H]1CC[C@H](C(=O)N[C@@H](CC(=O)O)C(=O)COc2c(F)c(F)cc(F)c2F)CC1`
Reply: 552
